molecular target: NK1 -receptor (substance P-receptor) (Homo sapiens); construct: intact human lymphoblastoma cells (IM-9) which express NK1 -receptors; endogenous in cells; host or cells: IM-9 human lymphoblastoma cells; test: NK1-receptor affinity: displacement of 125I labelled substance P on intact human lymphoblastoma cells (IM-9); format: binding; conditions: Ki, intact human lymphoblastoma cells (IM-9) expressing NK1-receptors
Sequence (P25103 whole entry): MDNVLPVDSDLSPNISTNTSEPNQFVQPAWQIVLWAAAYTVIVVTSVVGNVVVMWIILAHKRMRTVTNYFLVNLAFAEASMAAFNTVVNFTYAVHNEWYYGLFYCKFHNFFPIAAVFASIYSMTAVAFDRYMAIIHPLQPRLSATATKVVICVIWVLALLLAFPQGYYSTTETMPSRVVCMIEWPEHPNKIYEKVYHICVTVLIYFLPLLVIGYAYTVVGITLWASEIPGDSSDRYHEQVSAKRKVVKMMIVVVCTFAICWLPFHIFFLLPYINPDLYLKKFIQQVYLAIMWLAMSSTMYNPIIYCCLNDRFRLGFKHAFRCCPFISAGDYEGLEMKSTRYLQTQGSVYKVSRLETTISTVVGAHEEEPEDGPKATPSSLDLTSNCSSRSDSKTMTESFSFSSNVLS
assayEndpoint: pKi
In simple prose, pKi is minus the logarithm base ten of a concentration in moles per litre.

Respond only with pKi recorded for COc1ccccc1C(CNC(=O)Cc1ccc(Cl)cc1)N1CCN(C2CCCCC2)CC1 (stereo not shown) [Example 61]
6.07

* * *

Below, each entry is listed alongside its reported pKi.
target: NK1 -receptor (substance P-receptor) (Homo sapiens); construct: intact human lymphoblastoma cells (IM-9) which express NK1 -receptors; endogenous in cells; host or cells: IM-9 human lymphoblastoma cells; assay: NK1-receptor affinity: displacement of 125I labelled substance P on intact human lymphoblastoma cells (IM-9); type: binding; settings: intact human lymphoblastoma cells (IM-9) expressing NK1-receptors, read-out: Ki
In simple prose, pKi is minus the logarithm base ten of a concentration in moles per litre.

Below: 2 compounds and their reported pKi.
compound: COc1ccccc1C(CNCc1cc(C(F)(F)F)cc(C(F)(F)F)c1)N1CCN(Cc2ccccc2)CC1 (stereo not drawn) [Example 22]
pKi: 6.81
--
compound: COc1ccccc1C(CNCc1cc(C(F)(F)F)cc(C(F)(F)F)c1)N1CCN(c2ccccn2)CC1 (stereo not drawn) [Example 28]
pKi: 6.99

Shifting focus to the compound that follows.
Respond only with pKi recorded for COc1ccccc1C(CNCc1cc(C(F)(F)F)cc(C(F)(F)F)c1)N1CCN(c2ccc3ccccc3n2)CC1 (stereo not drawn) [Example 29]
6.92
